Test: amyloid nucleation score (Sup35N fusion, yeast selection) (log enrichment); library NNK3; higher = more nucleation; inactive = no reads after selection;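 also: zero at mode of non-aggregating sequences after 7 days selection at 30°C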
measured_attribute: amyloid nucleation score

Here is how some sequences turned out for amyloid nucleation score.
ordered_residues | amyloid nucleation score
TYQVILSFYDLWFGRSAYCQ | inactive
YRYNNLKRCGNSAQWLAISS | -0.08
ECATTVGNAFRRSGVQVFAM | inactive
LIISFKYCFPWKVVSTSVYN | 1.17
FLSDYGSC | inactive
DFNLFKAQIYLWNSFDVSEF | 0.99
DFRSSRLHSIITTQFIYFYD | inactive
CLCVTAGYISNTGGHRSWII | inactive

# amyloid nucleation score (sequence: PDDCVGRSD ) is inactive
